assay: Cmax in BALB/C mouse at 5 mg/kg, iv by LC-MS/MS analysis; assay type: ADME, organism-based; parameters: dose 5 mg/kg, route iv; settings: in vivo
MEASUREMENT KIND: Cmax
Answer as a quantity: numeral, then unit.

// query Returns the measured Cmax for the input compound. Input: O=S(=O)(Oc1cccc2ccccc12)C1CC2OC1C(c1ccc([Se]c3ccccc3)cc1)=C2c1ccc(O)cc1 (stereo unspecified)
// result 1490 ng/mL

###

Listed here are molecules together with their documented IC50 at 72 h.
experiment: Antiproliferative activity against human MCF-10A cells assessed as reduction in cell viability measured after 72 hrs by Cell Counting Kit-8 assay; type: toxicity, cell-based

Past entries and their recorded results:
INSERT INTO assay_data (molecule, measurement_kind, test_result) VALUES
  ('O=S(=O)(Oc1cccc2ccccc12)C1CC2OC1C(c1ccc([Se]c3ccccc3)cc1)=C2c1ccc(O)cc1 (centres undefined)', 'IC50 at 72 h', '> 60 µM'),
  ('Cc1cccc(OS(=O)(=O)C2CC3OC2C(c2ccc([Se]c4ccccc4)cc2)=C3c2ccc(O)cc2)c1 (centres undefined)', 'IC50 at 72 h', '30.6 µM'),
  ('O=S(=O)(Oc1ccc([Se]c2ccccc2)cc1)C1CC2OC1C(c1ccc(O)cc1)=C2c1ccc(O)cc1 (centres undefined)', 'IC50 at 72 h', '> 60 µM');

// query Using the record for COc1ccc(OS(=O)(=O)C2CC3OC2C(c2ccc(O)cc2)=C3c2ccc([Se]c3ccccc3)cc2)cc1 (centres undefined) , report its IC50 at 72 h.
// result > 60 µM

###

test: AUC in BALB/C mouse at 20 mg/kg, po by LC-MS/MS analysis; assay type: ADME, organism-based; design: dose 20 mg/kg, route po; details: in vivo
MEASUREMENT KIND: AUC (ng·h/mL)
Return type: number; implicit unit ng·h/mL.

// query Need AUC of O=S(=O)(Oc1cccc2ccccc12)C1CC2OC1C(c1ccc([Se]c3ccccc3)cc1)=C2c1ccc(O)cc1 (stereo unspecified) , thanks.
// result 1430

###

test system: MCF7; assay: cells; settings: Homo sapiens, MCF7, 72 h
Description: Antiproliferative activity against human MCF7 cells assessed as reduction in cell viability measured after 72 hrs by Cell Counting Kit-8 assay
Parameter: pIC50. Scope: all listed entries.
Friendly reminder that pIC50 comes from taking -log10 of the concentration in mol/L.

Past entries and their recorded results:
INSERT INTO results (compound, test_result) VALUES
  ('COc1ccc(OS(=O)(=O)C2CC3OC2C(c2ccc([Se]c4ccccc4)cc2)=C3c2ccc(O)cc2)cc1 (centres undefined)', 6.68),
  ('O=S(=O)(Oc1ccc(C(F)(F)F)cc1)C1CC2OC1C(c1ccc([Se]c3ccccc3)cc1)=C2c1ccc(O)cc1 (centres undefined)', 6.35),
  ('Cc1ccc(OS(=O)(=O)C2CC3OC2C(c2ccc([Se]c4ccccc4)cc2)=C3c2ccc(O)cc2)cc1 (centres undefined)', 6.39);

// query Need pIC50 of O=S(=O)(Oc1ccc(Br)cc1)C1CC2OC1C(c1ccc([Se]c3ccccc3)cc1)=C2c1ccc(O)cc1 (centres undefined) , thanks.
// result 6.51

###

assay: Tmax in BALB/C mouse at 20 mg/kg, po by LC-MS/MS analysis; format: ADME, organism-based; conditions: in vivo
MEASUREMENT KIND: Tmax (h)
The reply should contain only the number, in h.

// query What value of Tmax has been recorded for this entry: O=S(=O)(Oc1cccc2ccccc12)C1CC2OC1C(c1ccc([Se]c3ccccc3)cc1)=C2c1ccc(O)cc1 (stereo unspecified)
// result 2
